Sourced from patent US20240132578A1

Target: HIV-1 Env of isolate MGRM-C-006 (subtype C) (HIV-1)
Assay: cell-based or functional assay
result.type: IC50 (µg/mL), pseudovirus neutralization

binder="PGT-127 (antibody, V domains shown) VH: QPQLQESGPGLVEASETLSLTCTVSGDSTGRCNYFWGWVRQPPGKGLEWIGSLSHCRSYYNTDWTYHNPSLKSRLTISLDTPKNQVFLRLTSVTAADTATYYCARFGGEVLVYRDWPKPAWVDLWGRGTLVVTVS VL: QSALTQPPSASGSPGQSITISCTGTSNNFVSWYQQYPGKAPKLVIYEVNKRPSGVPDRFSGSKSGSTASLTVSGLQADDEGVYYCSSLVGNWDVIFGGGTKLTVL" numeric_readout=0.319
binder="PGT-123 (antibody, V domains shown) VH: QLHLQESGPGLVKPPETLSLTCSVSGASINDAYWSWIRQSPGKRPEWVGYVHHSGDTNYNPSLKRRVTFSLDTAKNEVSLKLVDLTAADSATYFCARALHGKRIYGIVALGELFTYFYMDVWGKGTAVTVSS VL: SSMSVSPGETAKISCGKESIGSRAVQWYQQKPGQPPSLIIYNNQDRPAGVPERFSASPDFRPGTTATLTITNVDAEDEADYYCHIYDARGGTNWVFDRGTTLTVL" numeric_readout=0.021
binder="PGT-125 (antibody, V domains shown) VH: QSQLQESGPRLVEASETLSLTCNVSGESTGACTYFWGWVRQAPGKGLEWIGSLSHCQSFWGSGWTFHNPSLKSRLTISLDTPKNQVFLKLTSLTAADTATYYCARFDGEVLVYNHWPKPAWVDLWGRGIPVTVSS VL: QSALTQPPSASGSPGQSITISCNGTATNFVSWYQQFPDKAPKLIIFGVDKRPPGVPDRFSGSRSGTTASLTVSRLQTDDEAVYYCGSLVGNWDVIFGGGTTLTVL" numeric_readout=0.015
binder="PGT-126 (antibody, V domains shown) VH: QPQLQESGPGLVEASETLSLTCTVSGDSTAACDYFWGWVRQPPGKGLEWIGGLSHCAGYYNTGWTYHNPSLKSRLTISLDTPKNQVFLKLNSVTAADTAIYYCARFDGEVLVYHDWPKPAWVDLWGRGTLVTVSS VL: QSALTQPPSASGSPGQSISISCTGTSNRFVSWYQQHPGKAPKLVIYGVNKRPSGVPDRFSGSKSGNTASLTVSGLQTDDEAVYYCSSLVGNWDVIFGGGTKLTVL" numeric_readout=0.014
